molecular target: human indoleamine 2,3-dioxygenase 1 (hIDO1) (Homo sapiens, UniProt P14902); construct: His tag (N); purchased BPS Bioscience, San Diego, Calif., USA; host or cells: E. coli; experiment: In-vitro human indoleamine 2,3-dioxygenase 1 (IDO1) enzyme assay; assay type: biochemical; settings: hIDO1 enzyme at 1.0 μM concentration
Sequence (P14902 whole entry): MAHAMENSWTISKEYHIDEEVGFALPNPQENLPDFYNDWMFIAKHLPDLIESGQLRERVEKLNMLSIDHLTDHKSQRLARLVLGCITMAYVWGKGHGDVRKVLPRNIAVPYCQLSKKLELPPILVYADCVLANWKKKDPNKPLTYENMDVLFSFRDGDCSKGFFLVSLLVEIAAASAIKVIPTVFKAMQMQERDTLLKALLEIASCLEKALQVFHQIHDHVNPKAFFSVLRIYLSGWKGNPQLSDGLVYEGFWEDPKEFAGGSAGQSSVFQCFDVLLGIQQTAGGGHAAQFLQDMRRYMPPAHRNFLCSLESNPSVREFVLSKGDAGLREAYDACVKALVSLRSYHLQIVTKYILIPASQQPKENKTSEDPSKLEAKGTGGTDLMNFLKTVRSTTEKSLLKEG
Experimental Readout: inhibition at 1 µM

Some entries whose results are on file:
>>> observed("CC1=C(c2ccccc2)C(CC(O)C2CCN(S(C)(=O)=O)CC2)n2cncc21 (stereo not drawn)")
"≤ 50%"
>>> observed("CC1=C(c2ccccc2)C(C[C@H](O)C2CCC(C(=O)N3CCC(O)CC3)CC2)n2cncc21 (stereo partly drawn)")
"≥ 50%"
>>> observed("CC1=C(c2ccccc2)C(CC(=O)c2ccc(-c3cnc[nH]3)cc2)n2cncc21 (stereo not drawn)")
"≥ 50%"
>>> observed("CC1=C(c2ccccc2)C(CC(O)c2ccc(C3CCCCC3)cc2)n2cncc21 (stereo not drawn)")
"≤ 50%"
>>> observed("CC1=C(c2ccccc2)C(CC(=O)c2cc(F)ccc2F)n2cncc21 (stereo not drawn)")
"≥ 50%"

Requested field: inhibition at 1 µM. Item: CC1=C(c2ccc(C)cc2)C(CC(O)C2CCCCC2)n2cncc21 (stereo not drawn)
≤ 50%

Requested field: inhibition at 1 µM. Item: CC1=C(c2ccccc2)C(CC(O)C2CCN(C(=O)c3ccccc3)CC2)n2cncc21 (stereo not drawn)
≥ 50%

Requested field: inhibition at 1 µM. Item: CC1=C(c2ccccc2)C(CC(=O)c2ccc3ccccc3c2)n2cncc21 (stereo not drawn)
≥ 50%

Requested field: inhibition at 1 µM. Item: CC1=C(c2ccccc2)C(CC(O)C2CCCCC2)n2cncc21 (stereo not drawn)
≥ 50%
